Structures can show the parent of a compound that is named as a salt.
PRC2-EZH1 (WT EZH1) (Homo sapiens, UniProt Q92800) measurements of pIC50, listed per entry.
Sequence (Q92800 whole entry): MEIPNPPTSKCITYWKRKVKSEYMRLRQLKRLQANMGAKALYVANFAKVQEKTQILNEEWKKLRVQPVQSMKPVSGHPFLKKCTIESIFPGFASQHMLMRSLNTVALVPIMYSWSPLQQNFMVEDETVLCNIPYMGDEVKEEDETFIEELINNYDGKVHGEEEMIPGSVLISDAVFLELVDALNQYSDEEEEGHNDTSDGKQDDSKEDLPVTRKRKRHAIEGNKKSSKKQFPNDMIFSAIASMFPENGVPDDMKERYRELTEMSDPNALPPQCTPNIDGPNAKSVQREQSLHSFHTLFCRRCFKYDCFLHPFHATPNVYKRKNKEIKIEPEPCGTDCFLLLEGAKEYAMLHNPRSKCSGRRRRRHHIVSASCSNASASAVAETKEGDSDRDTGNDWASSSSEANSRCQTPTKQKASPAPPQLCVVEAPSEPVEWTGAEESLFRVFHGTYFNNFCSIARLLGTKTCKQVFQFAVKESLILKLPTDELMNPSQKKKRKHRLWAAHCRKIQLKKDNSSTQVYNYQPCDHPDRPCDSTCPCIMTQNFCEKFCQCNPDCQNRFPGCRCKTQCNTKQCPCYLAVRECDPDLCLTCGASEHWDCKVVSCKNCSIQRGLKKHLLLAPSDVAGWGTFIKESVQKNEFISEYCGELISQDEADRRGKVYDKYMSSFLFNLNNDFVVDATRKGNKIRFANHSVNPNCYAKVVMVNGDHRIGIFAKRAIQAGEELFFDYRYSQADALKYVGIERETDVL
Sequence (O75530 whole entry partner): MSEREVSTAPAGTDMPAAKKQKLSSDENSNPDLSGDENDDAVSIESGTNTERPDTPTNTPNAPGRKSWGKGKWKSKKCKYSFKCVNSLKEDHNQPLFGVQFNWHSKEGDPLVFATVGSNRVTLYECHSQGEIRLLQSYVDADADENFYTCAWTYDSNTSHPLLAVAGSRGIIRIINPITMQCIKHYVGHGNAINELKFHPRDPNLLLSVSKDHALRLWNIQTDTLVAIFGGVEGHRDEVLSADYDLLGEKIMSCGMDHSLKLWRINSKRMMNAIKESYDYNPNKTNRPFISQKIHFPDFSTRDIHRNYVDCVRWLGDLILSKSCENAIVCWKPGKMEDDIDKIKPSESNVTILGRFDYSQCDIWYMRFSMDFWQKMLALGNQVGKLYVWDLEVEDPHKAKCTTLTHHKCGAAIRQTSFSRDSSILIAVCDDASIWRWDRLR
Sequence (Q15022 whole entry partner): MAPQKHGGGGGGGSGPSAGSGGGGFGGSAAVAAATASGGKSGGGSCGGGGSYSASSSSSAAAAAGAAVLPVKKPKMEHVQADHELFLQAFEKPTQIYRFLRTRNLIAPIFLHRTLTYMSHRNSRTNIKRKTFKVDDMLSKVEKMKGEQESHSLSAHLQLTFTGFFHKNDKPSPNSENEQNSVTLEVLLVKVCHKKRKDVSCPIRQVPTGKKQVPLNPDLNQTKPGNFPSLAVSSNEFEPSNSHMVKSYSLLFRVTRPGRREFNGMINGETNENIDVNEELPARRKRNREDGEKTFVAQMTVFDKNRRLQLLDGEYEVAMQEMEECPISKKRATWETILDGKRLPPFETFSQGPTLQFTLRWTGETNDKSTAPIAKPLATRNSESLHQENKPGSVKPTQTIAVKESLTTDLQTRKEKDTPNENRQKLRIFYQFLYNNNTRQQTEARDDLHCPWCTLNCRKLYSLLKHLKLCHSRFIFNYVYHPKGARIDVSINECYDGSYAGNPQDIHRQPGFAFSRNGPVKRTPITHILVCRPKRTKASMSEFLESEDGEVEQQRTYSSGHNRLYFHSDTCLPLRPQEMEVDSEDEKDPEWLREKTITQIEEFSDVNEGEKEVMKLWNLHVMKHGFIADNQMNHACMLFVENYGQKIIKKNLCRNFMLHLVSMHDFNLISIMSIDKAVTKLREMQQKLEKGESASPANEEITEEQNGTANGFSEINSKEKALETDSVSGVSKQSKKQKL
Sequence (Q09028 whole entry partner): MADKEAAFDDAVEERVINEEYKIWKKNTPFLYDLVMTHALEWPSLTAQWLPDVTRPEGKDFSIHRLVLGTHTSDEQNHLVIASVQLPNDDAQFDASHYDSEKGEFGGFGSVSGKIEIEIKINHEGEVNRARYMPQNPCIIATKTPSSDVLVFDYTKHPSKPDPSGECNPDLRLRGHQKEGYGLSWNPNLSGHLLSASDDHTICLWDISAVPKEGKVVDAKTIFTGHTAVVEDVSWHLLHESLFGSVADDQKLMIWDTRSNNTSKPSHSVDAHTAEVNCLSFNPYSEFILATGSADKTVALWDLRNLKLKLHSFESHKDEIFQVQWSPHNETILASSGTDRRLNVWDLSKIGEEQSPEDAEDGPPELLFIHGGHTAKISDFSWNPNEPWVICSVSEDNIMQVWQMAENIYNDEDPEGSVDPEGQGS
Sequence (Q6ZN18 whole entry partner): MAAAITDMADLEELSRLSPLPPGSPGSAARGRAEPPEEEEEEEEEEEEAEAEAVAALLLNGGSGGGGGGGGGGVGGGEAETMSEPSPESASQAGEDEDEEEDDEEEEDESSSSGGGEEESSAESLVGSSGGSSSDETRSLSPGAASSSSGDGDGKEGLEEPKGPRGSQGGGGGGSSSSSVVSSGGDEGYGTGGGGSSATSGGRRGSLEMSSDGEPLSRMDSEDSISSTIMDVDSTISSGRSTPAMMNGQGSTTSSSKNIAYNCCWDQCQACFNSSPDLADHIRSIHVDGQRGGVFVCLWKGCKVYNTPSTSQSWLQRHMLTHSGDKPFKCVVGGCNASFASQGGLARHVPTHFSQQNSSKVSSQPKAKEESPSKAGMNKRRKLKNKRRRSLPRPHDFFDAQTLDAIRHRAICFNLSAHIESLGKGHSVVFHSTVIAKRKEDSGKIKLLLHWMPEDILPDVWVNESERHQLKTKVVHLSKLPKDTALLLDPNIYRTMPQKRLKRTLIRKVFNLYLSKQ
# log scale: pIC50 equals minus log10 of the concentration in mol/L

Inquiry: Recall the recorded pIC50 for Cc1cc(C)c(CNC(=O)c2cc(Br)c3c(c2C)OC(C)(CN2CCNCC2)O3)c(=O)[nH]1 (stereo not drawn) with PRC2-EZH1 (WT EZH1) (Homo sapiens, UniProt Q92800) and state it.
Reply text: 6.72

Inquiry: Recall the recorded pIC50 for CCc1cc(C(=O)NCc2c(C)cc(C)[nH]c2=O)c(C)c2c1OC(C)([C@H]1CC[C@H](N(C)C)CC1)O2 (relative stereo) with PRC2-EZH1 (WT EZH1) (Homo sapiens, UniProt Q92800) and state it.
Reply text: 7.70

Inquiry: Recall the recorded pIC50 for Cc1cc(C)c(CNC(=O)c2cc(-c3cncs3)c3c(c2C)OC(C)([C@H]2CC[C@H](N(C)C)CC2)O3)c(=O)[nH]1 (relative stereo) [Example 70, hydrochloride] with PRC2-EZH1 (WT EZH1) (Homo sapiens, UniProt Q92800) and state it.
Reply text: 7.42

Inquiry: Recall the recorded pIC50 for Cc1cc(C)c(CNC(=O)c2cc(Br)c3c(c2C)OC(C)(C2CC4(CC(N(C)C)C4)C2)O3)c(=O)[nH]1 (stereo not drawn) with PRC2-EZH1 (WT EZH1) (Homo sapiens, UniProt Q92800) and state it.
Reply text: 6.89

Inquiry: Recall the recorded pIC50 for CCN1CCC(CC2(C)Oc3c(Br)cc(C(=O)NCc4c(C)cc(C)[nH]c4=O)c(C)c3O2)CC1 (stereo not drawn) with PRC2-EZH1 (WT EZH1) (Homo sapiens, UniProt Q92800) and state it.
Reply text: 6.72

Inquiry: Recall the recorded pIC50 for Cc1cc(C)c(CNC(=O)c2cc(Cl)c3c(c2C)OC(C)(CC2CCN(C)CC2)O3)c(=O)[nH]1 (stereo not drawn) with PRC2-EZH1 (WT EZH1) (Homo sapiens, UniProt Q92800) and state it.
Reply text: 6.68
